Form field: Ki (one value per entry).
Molecular target: human cloned 5-HT2B receptors (Homo sapiens)
Construct: expressed in transfected cells; host or cells: CHO-K1 cells
Experiment: Human cloned 5-HT2B receptor binding assay ([3H]LSD, CHO-K1 membranes)
Settings: displacement of [3H]LSD (1 nM), read-out: 5-HT2B pKi (converted)
Protocol: The binding affinity of the compounds for human cloned 5-HT2B receptors was determined using the following assay. […] The membranes were thawed rapidly and diluted in assay buffer containing Tris-HCl (50 mM, pH 7.4), ascorbic acid (0.1%) and calcium chloride (4 mM). […] Non specific binding was determined in the presence of 100 μM 5-HT. […] Radioactivity retained on the filters was determined by liquid scintillation counting. […]

Reference set (2 entries):
                             compound  measuredattribute  valueobserved
0  COC(=O)COc1ccc2ccccc2c1-c1coc(N)n1                 Ki      < 1000 nM
1        COc1ccc2ccccc2c1-c1oc(N)nc1C                 Ki        < 10 nM

Value wanted: Ki (human cloned 5-HT2B receptors (Homo sapiens)) of entry "N#Cc1ccc2cccc(-c3coc(N)n3)c2c1" < 10000 nM

Value wanted: Ki (human cloned 5-HT2B receptors (Homo sapiens)) of entry "CC(=O)Nc1nc(-c2cccc3ccccc23)co1" < 1000 nM

Value wanted: Ki (human cloned 5-HT2B receptors (Homo sapiens)) of entry Nc1nc(-c2cccc3sccc23)co1 [Compound 15, 4-benzo[b]thiophen-4-yl-oxazol-2-ylamine] < 1000 nM

Value wanted: Ki (human cloned 5-HT2B receptors (Homo sapiens)) of entry "Nc1nc(-c2c(O)ccc3ccccc23)co1" < 100 nM

* * *

Molecular target: 5-HT2B receptor in human tissues (Homo sapiens, UniProt P41595)
Construct: from tissue; host or cells: human colon longitudinal smooth muscle strips
Test: Human 5-HT2B receptor tissue based functional assay (human colon longitudinal smooth muscle)
Type: cell-based
Conditions: antagonism of 5-HT effect on electrically stimulated human colon longitudinal muscle; pKB=log(CR-1)-log(antagonist concentration)
measuredAttribute: Kb

Reference set (3 entries):
>>> print(df.to_string())
                                   compound  valueobserved
0  Cc1ccc2ccccc2c1-c1coc(N)n1 [Compound 6, 2-amino-4-(2′-methylnaphth-1-yl)oxazole]       < 100 nM
1  Nc1nc(-c2cccc3ccccc23)co1 [Compound 1, 2-amino-4-(naphth-1-yl)oxazole]       < 100 nM
2  CC(C)c1nc(N)oc1-c1ccc(F)c2ccccc12 [Compound 31]       < 100 nM

Data request, read-out Kb, for CC(C)c1nc(N)oc1-c1cccc2ccccc12 [Compound 7] < 10 nM

Data request, read-out Kb, for COc1ccc2ccccc2c1-c1coc(N)n1 [Compound 17] < 10 nM

* * *

Form field: melting point (one value per entry).

Reference set (5 entries):
>>> print(df.to_string())
                      smilesrecord  valueobserved
0  CC(=O)Nc1nc(-c2cccc3ccccc23)co1  188 to 190 °C
1       CNc1nc(-c2cccc3ccccc23)co1  164 to 166 °C
2    Nc1nc(-c2cccc3ccc(Br)cc23)co1  189 to 190 °C
3        Nc1nc(-c2cccc3ccccc23)co1  155 to 162 °C
4    CN(C)c1nc(-c2cccc3ccccc23)co1    30 to 32 °C

Data request, read-out melting point, for "Nc1nc(-c2ccc(F)c3ccccc23)co1" 171 to 174 °C

Data request, read-out melting point, for "Cc1nc(N)oc1-c1cccc2ccccc12" 187 to 189 °C

Data request, read-out melting point, for "CC(C)c1nc(N)oc1-c1cccc2ccccc12" 127 to 129 °C

Data request, read-out melting point, for "CC(C)c1nc(N)oc1-c1ccc(F)c2ccccc12" 141 °C

* * *

Target: cloned human 5-HT2C receptor (Homo sapiens)
Construct: purchased Euroscreen; host or cells: CHO-K1 cells
Sequence (P28335 33-458): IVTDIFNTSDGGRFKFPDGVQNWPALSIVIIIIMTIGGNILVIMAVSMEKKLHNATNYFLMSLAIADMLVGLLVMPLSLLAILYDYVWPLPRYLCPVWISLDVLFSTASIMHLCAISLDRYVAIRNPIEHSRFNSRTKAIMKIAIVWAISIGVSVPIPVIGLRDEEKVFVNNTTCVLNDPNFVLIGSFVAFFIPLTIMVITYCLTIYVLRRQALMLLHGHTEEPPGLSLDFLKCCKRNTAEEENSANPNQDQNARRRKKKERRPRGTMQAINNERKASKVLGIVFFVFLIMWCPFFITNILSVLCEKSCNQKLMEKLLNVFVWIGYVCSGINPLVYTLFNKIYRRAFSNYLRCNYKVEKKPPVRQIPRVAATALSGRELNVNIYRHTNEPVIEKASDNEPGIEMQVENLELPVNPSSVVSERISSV
Assay: Human 5-HT2C receptor binding assay ([3H]mesulergine, CHO-K1 membranes)
Details: displacement of [3H]mesulergine (1 nM), read-out: 5-HT2C pKi (converted)
measuredAttribute: Ki

Reference set (5 entries):
In [3]: df
Out[3]:
                            compound  valueobserved
0          Nc1nc(-c2ccc3ccccc3c2)co1        > 10 µM
1      COc1c(-c2coc(N)n2)ccc2ccccc12        > 10 µM
2  COc1ccc2ccccc2c1-c1coc(NC(C)=O)n1         > 1 µM
3         CNc1nc(-c2cccc3ccccc23)co1         > 1 µM
4        Cc1c(-c2coc(N)n2)sc2ccccc12         > 1 µM

Data request, read-out Ki, for "N#Cc1cccc2c(-c3coc(N)n3)cccc12" > 1 µM

* * *

Target: human cloned 5-HT2B receptors (Homo sapiens, UniProt P41595)
Sequence (P41595 whole entry): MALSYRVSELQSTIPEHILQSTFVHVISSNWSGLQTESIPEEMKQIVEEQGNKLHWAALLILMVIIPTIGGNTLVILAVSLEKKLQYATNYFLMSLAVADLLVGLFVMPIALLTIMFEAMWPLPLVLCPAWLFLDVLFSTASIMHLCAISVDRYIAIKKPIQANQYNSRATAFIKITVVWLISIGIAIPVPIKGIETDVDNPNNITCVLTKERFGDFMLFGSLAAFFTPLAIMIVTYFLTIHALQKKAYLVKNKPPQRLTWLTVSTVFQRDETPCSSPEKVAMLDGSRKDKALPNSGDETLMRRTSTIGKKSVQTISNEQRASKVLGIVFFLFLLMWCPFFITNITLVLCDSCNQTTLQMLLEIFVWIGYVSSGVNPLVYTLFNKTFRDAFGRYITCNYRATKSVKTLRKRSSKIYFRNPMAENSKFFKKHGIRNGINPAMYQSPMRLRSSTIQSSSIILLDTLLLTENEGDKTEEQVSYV
Experiment: Human cloned 5-HT2B cell-based functional assay (Fluo-4, CHO.K1 cells)
Conditions: inhibition of 5-HT response, CHO.K1 cells expressing cloned 5-HT2B, Fluo-4 AM
measuredAttribute: IC50

>>> print(df.to_string())
                  smilesrecord  valueobserved
0  COc1ccc2ccccc2c1-c1coc(N)n1      < 0.01 µM
1   Cc1ccc2ccccc2c1-c1coc(N)n1       < 0.1 µM

// moving on: another record for IC50
Data request, read-out IC50, for "CC(C)c1nc(N)oc1-c1ccc(F)c2ccccc12" < 0.01 µM

* * *

Molecular target: cloned human 5-HT2A receptor (Homo sapiens, UniProt P28223)
Construct: purchased Euroscreen; host or cells: CHO-K1 cells
Sequence (P28223 whole entry): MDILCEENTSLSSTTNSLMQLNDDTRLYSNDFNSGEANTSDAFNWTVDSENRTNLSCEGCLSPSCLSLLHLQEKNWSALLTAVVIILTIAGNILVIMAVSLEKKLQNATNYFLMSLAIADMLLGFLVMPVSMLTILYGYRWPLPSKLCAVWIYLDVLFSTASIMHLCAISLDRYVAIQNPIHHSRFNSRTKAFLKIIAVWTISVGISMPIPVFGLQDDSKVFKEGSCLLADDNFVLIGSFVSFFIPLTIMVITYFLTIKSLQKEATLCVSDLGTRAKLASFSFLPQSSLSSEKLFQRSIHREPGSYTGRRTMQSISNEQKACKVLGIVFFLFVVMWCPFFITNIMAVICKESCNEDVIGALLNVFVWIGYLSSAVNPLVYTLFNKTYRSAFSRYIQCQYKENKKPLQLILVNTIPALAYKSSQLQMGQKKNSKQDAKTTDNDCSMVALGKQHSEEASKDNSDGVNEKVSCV
Assay: Human 5-HT2A receptor binding assay ([3H]ketanserin, CHO-K1 membranes)
Settings: displacement of [3H]ketanserin (1 nM), read-out: 5-HT2A pKi (converted)
Form field: Ki (one value per entry).

Reference set (4 entries):
>>> print(df.to_string())
                    smilesrecord  valueobserved
0   Nc1nc(-c2ccc(F)c3ccccc23)co1      > 1000 nM
1   COc1ccc2ccccc2c1-c1oc(N)nc1C      > 1000 nM
2  Nc1nc(-c2cccc3c(Br)cccc23)co1     > 10000 nM
3   CCOc1ccc2ccccc2c1-c1coc(N)n1      > 1000 nM

// moving on: another record for Ki
Data request, read-out Ki, for "NC(=O)c1ccc2cccc(-c3coc(N)n3)c2c1" > 10000 nM

* * *

Form field: Ki (one value per entry).
Biological target: cloned human 5-HT2A receptor (Homo sapiens, UniProt P28223)
Construct: purchased Euroscreen; host or cells: CHO-K1 cells
Assay: Human 5-HT2A receptor binding assay ([3H]ketanserin, CHO-K1 membranes)
Conditions: displacement of [3H]ketanserin (1 nM), read-out: 5-HT2A pKi (converted)

>>> print(df.to_string())
                                   compound                             assayedsystem  measuredattribute  valueobserved
0  Nc1nc(-c2cccc3sccc23)co1 [Compound 15, 4-benzo[b]thiophen-4-yl-oxazol-2-ylamine]  cloned human 5-HT2A receptor (Homo sapiens, UniProt P28223)                 Ki         > 1 µM

Data request, read-out Ki, for COc1ccc2ccccc2c1-c1coc(NC(C)=O)n1 [Compound 25] > 1 µM

Data request, read-out Ki, for Cc1ccc2ccccc2c1-c1coc(N)n1 [Compound 6, 2-amino-4-(2′-methylnaphth-1-yl)oxazole] > 1 µM

Data request, read-out Ki, for COc1c(-c2coc(N)n2)ccc2ccccc12 [Compound 18] > 10 µM

Data request, read-out Ki, for CNc1nc(-c2cccc3ccccc23)co1 [Compound 2, 2-methylamino-4-(naphth-1-yl)oxazole] > 10 µM

Data request, read-out Ki, for Nc1nc(-c2ccc3c(c2)OCCO3)co1 [Compound 14] > 10 µM

Data request, read-out Ki, for Nc1nc(-c2c(O)ccc3ccccc23)co1 [Compound 22, 1-(2-amino-oxazol-4-yl)-naphthalen-2-ol] > 1 µM

Data request, read-out Ki, for COc1ccc2ccccc2c1-c1coc(N)n1 [Compound 17] > 1 µM

Data request, read-out Ki, for CC(=O)OCc1nc(N)oc1-c1cccc2ccccc12 [Compound 28] > 10 µM

Data request, read-out Ki, for Cc1c(-c2coc(N)n2)sc2ccccc12 [Compound 13] > 10 µM

Data request, read-out Ki, for COc1ccc(-c2coc(N)n2)c2ccccc12 [Compound 11] > 10 µM

Data request, read-out Ki, for N#Cc1cccc2c(-c3coc(N)n3)cccc12 [Compound 21] > 10 µM

Data request, read-out Ki, for Nc1nc(-c2cccc3ccccc23)co1 [Compound 1, 2-amino-4-(naphth-1-yl)oxazole] > 10 µM

Data request, read-out Ki, for Cc1oc(N)nc1-c1cccc2ccccc12 [Compound 30] > 10 µM

Data request, read-out Ki, for Nc1nc(-c2cccc3ccc(Br)cc23)co1 [Compound 5, 2-amino-4-(7′-bromonaphth-1-yl)oxazole] > 1 µM

Data request, read-out Ki, for CC(C)c1nc(N)oc1-c1cccc2ccccc12 [Compound 7] > 0.1 µM

Data request, read-out Ki, for CN(C)c1nc(-c2cccc3ccccc23)co1 [Compound 8, 2-dimethylamino-4-(naphth-1-yl)oxazole] > 10 µM

Data request, read-out Ki, for N#Cc1ccc2cccc(-c3coc(N)n3)c2c1 [Compound 20] > 10 µM
